Biological target: Human TRPC6 (Homo sapiens)
Construct: expressed in transfected cells
Sequence (Q9Y210 1-931): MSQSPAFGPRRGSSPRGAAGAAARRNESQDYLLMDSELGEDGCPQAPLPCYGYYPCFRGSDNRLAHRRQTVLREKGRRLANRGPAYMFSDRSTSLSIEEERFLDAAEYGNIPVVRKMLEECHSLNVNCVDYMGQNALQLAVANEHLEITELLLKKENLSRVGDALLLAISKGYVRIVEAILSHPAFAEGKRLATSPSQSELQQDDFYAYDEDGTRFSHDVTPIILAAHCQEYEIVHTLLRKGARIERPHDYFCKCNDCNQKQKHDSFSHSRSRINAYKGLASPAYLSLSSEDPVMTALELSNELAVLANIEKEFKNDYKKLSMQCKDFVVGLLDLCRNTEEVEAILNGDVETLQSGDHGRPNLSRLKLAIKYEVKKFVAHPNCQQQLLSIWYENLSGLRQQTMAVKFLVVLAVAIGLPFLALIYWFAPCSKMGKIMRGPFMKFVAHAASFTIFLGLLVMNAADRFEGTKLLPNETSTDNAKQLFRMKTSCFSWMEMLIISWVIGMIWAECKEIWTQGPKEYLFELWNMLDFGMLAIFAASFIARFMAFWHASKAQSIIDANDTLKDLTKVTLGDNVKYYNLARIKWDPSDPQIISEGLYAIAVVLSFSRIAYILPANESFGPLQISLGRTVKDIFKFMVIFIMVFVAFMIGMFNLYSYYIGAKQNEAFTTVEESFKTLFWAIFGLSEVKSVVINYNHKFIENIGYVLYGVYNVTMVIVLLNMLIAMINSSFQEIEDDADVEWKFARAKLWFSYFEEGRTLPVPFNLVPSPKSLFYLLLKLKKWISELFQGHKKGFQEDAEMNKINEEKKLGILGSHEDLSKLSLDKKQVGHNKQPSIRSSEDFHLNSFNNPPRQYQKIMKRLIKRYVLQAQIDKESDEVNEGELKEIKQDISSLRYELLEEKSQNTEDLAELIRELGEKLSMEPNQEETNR
Test: Evaluation of TRPC6 channel inhibitory activity (1), FLIPR Calcium 5 Assay Kit, OAG stimulation (Compound Nos. 1-1293)
Format: cell-based
Conditions: Human TRPC6 stably-expressing cells, OAG 30 μM, FLIPR Calcium 5 Assay Kit; read-out: Inhibitory activity (pIC50 class) (converted)
Assay endpoint: IC50

Data request: I am curious: what IC50 value has been reported for N#Cc1ccc(-c2ccc(C(CN)C(F)F)cc2)c(Oc2cnnc(N3CCOCC3)c2)c1 (centres unmarked) [Compound 139] ?
Data returned: 10 to 1000 nM

Data request: So what does the record say about IC50 for Cc1nn(C(C)C)cc1C(=O)c1cc(C#N)ccc1-c1ncc(CN)cn1 [compound 1054] ?
Data returned: < 10 nM

Data request: Returns the measured IC50 for the input compound. Input: Cn1nc(N2CCCC2)cc1Oc1cc(C#N)ccc1-c1ccc([C@H](O)CN)cn1 [compound 545]
Data returned: 10 to 1000 nM

* * *

The entries below are paired with their reported IC50.
Target: Human TRPC6 (Homo sapiens, UniProt Q9Y210)
Construct: expressed in transfected cells
Assay: Evaluation of TRPC6 channel inhibitory activity (2), HEK293 cells with stably introduced human TRPC6, OAG stimulation, FLIPR tetra (Compound Nos. 1293 to 1405)
Format: cell-based
Settings: HEK293 cells with stably introduced human TRPC6, OAG 50 μM/0.5% DMSO, read-out: Inhibitory activity (pIC50 class) (converted)
Protocol: Evaluation of TRPC6 Channel Inhibitory Activity (2) (Compound Nos. 1293 to 1405) The activity of the TRPC6 inhibitor was measured by stimulating HEK293 cells, in which human TRPC6 was stably introduced, with OAG (1-Oleoyl-2-acetyl-sn-glycerol, Miliipore Sigma, 06754), using the FLIPR tetra system. […] A volume of 12.5 μL of OAG solution was added, and activation of TRPC6 channel was measured using the FLIPR tetra system assaying the change in intracellular calcium level as an index. […]

Consider the worked cases shown below.
{"Compound": "Cn1nc([C@H]2CCOC2)cc1Oc1cc(Cl)ccc1-c1ncc([C@H](F)CN)cn1 [compound 1344]", "Value measured": "> 1000 nM"}
{"Compound": "Cn1nc(C2CC2)cc1Oc1cc(F)ccc1-c1ncc([C@@H](O)CN)cn1 [compound 1384]", "Value measured": "10 to 1000 nM"}

Data request: Endpoint output: IC50 of Cn1cc(-c2cc(Oc3cc(C#N)ccc3-c3ccc(CN)cn3)n(C)n2)cn1 [compound 1309] . Value?
Data returned: 10 to 1000 nM

Data request: Entry under review: Cn1nc(C2CC2)cc1Oc1cc(Cl)ccc1-c1ccc(CN)cn1 [compound 1346] . Reported IC50?
Data returned: < 10 nM

Data request: Given the compound Cn1nc(-c2ccccn2)cc1Oc1cc(Cl)ccc1-c1ccc([C@@H](F)CN)cn1 [compound 1339] , what is its reported IC50?
Data returned: < 10 nM

Data request: What measured IC50 goes with Cc1nc(Oc2cc(Cl)ccc2-c2ncc([C@@H](O)CN)cn2)cc(N2CCOCC2)n1 [compound 1376] ?
Data returned: 10 to 1000 nM

Data request: Query: IC50; subject: C[C@@H](N)c1ccc(-c2ccc(Cl)cc2Oc2cc(-c3ccccn3)nn2C)nc1 [compound 1380]
Data returned: < 10 nM

Data request: Can you look up the measured IC50 of Cn1nc(-c2ccccn2)cc1Oc1cc(C#N)ccc1-c1ncc([C@H](F)CN)cn1 [compound 1296] for me?
Data returned: < 10 nM

Data request: What does the record list as IC50 for Cn1nc(-c2ccccn2)cc1Oc1cc(C#N)ccc1-c1ccc(CN)c(Cl)n1 [compound 1334] ?
Data returned: < 10 nM

Data request: What IC50 value was documented for this compound, Cc1cc(Oc2cc(C#N)ccc2-c2ncc(C(F)(F)CN)cn2)cc(N2CCOCC2)n1 [compound 1319] ?
Data returned: 10 to 1000 nM

Data request: What IC50 value was documented for this compound, COc1nc(-c2ccc(C#N)cc2Oc2cc(-c3ccccn3)nn2C)ncc1[C@@H](O)CN [compound 1327] ?
Data returned: 10 to 1000 nM

Data request: // query IC50 value for entry Cn1nc(C2CCOCC2)cc1Oc1cc(C#N)ccc1-c1ncc([C@H](F)CN)cn1 [compound 1314]
Data returned: 10 to 1000 nM
